system: LNCaP; assay: Cell growth inhibition assay, prostate cancer cell line LNCaP (medium with 10 ng/mL IL-6); type: cell-based; conditions: Homo sapiens, medium supplemented with 10 ng/mL of IL-6, 10,000 cells/well
parameter: IC50 (µM)

Below are worked cases with known answers.
{"columns": ["compound", "IC50, µM"],
 "data": [
  ["CC(C)(c1ccc(F)cc1)c1cccc(NC(=O)c2cc3ccc(NS(C)(=O)=O)cc3[nH]2)c1 [Example 1]", 2.5],
  ["CC(C)Oc1cc(N2CC[N+](C)([O-])CC2)cc(C(C)(C)c2cc(Cl)cc(NC(=O)c3cc4cc(NS(C)(=O)=O)ccc4s3)c2)c1 [Example 144]", 2.6],
  ["CS(=O)(=O)Nc1ccc2sc(C(=O)Nc3cc(Cl)cc(Oc4ccc(Cl)c(F)c4)c3)cc2c1 [Example 466]", 0.079],
  ["CS(=O)(=O)Nc1ccc2cc(C(=O)Nc3cccc(S(=O)(=O)c4cccc(Cl)c4)c3)[nH]c2c1 [Example 405]", 8.6],
  ["CN(C)S(=O)(=O)Nc1ccc2cc(C(=O)Nc3cccc(-c4ccc(F)cc4F)c3)[nH]c2c1 [Example 276]", 1.3]
]}

A: CC(C)(c1ccccc1)c1cccc(NC(=O)c2cc3ccc(NS(C)(=O)=O)cc3[nH]2)c1 [Example 2]
B: CC(C)Oc1cc(OC(F)(F)F)cc(C(C)(C)c2cc(Cl)cc(NC(=O)c3cc4cc(NS(=O)(=O)c5cnn(C)c5)ccc4s3)c2)c1 [Example 201]
C: CC(C)(c1cc(Br)cc(NC(=O)c2cc3cc(NS(C)(=O)=O)ccc3s2)c1)c1cccc(OC(F)F)c1 [Example 46]
D: COc1cc(NC(=O)c2cc3cc(NS(C)(=O)=O)ccc3s2)cc(C2(c3cc(OC)cc(OC(F)(F)F)c3)CC2)c1 [Example 427]
Problem: Ascending sort, IC50. Output the labels ranked as instructed.
Result: B, C, D, A
(B: 0.064 µM, C: 0.13 µM, D: 0.41 µM, A: 5.3 µM)
